systemUnderTest: HCV polymerase (NS5B570n-Con1) (Hepatitis C virus genotype 1b)
Construct: contains a 21 amino acid deletion at the C-terminus relative to the full-length HCV polymerase; 6-histidine (N); made in house; host or cells: E. coli strain BL21(DE) pLysS (pET17b)
protocolDetails: biochemical
Set-up: species or system HCV Con1 strain
conditionDetails: IC50 HCV NS5B RNA Polymerase Assay, values without asterisk; 20 nM NS5B570n-Con1 enzyme, 20 nM cIRES RNA template
pIC50: −log10 of the molar value.
Collected pIC50 values appear next to each entry.
measuredAttribute: pIC50

compound	dataValue
COC(=O)c1cc(NS(C)(=O)=O)ccc1/C=C/c1cc(-c2ccc[nH]c2=O)cc(C(C)(C)C)c1	7.72
COc1c(CC(CN2CCC(F)(F)C2)c2ccc(NS(C)(=O)=O)cc2)cc(-c2ccc[nH]c2=O)cc1C(C)(C)C (centres unmarked)	7.74
CC(C)(C)c1cc(-c2ccc[nH]c2=O)cc(NC(=O)c2ccccc2)c1F	5.96
COc1c(C(=O)Nc2cccc(O)c2C)cc(-c2ccc[nH]c2=O)cc1C(C)(C)C	6.07
COc1c(C(=O)NC2CCN(C)CC2)cc(-c2ccc[nH]c2=O)cc1C(C)(C)C	5.83
COc1c(CCc2ccc(N)nn2)cc(-c2ccc[nH]c2=O)cc1C(C)(C)C	8.30
COc1c(/C=C/c2ccc(NS(C)(=O)=O)nc2)cc(-c2cc(F)c[nH]c2=O)cc1C(C)(C)C	8.22
CC(C)(C)c1cc(-c2ccc[nH]c2=O)cc(NC(=O)c2ccc(NS(C)(=O)=O)cc2)c1F	7.27
CCOc1cc(NS(C)(=O)=O)ccc1C(=O)Nc1cc(-c2ccc[nH]c2=O)cc(C(C)(C)C)c1OC	8.05
COc1c(C(=O)c2cccc(F)c2)cc(-c2ccc[nH]c2=O)cc1C(C)(C)C	7.15
Cc1ccc(-c2cc(C(C)(C)C)cc(/C=C/c3ccc(NS(C)(=O)=O)cc3)c2O)c(=O)[nH]1	6.49
Cc1cc(-c2ccc[nH]c2=O)cc(C(C)(C)C)c1	6.28
COc1c(C(=O)NC2CCC(N(C)C)CC2)cc(-c2ccc[nH]c2=O)cc1C(C)(C)C (centres unmarked)	5.77
COc1c(C(=O)c2cccc(NS(C)(=O)=O)c2)cc(-c2ccc[nH]c2=O)cc1C(C)(C)C	7.80
COc1c(C)cc(-c2ccc[nH]c2=O)cc1C(C)(C)C	6.28
COc1c(C(=O)NC2CCC(NS(C)(=O)=O)CC2)cc(-c2ccc[nH]c2=O)cc1C(C)(C)C (centres unmarked)	7.46
COc1c(NC(=O)c2ccc(N)cc2C(F)(F)F)cc(-c2ccc[nH]c2=O)cc1C(C)(C)C	6.98

* * *

systemUnderTest: HCV polymerase (NS5B570n-Con1) (Hepatitis C virus genotype 1b, UniProt Q9WMX2);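 note: recombinant His-tagged enzyme from E. coli, radiolabeled nucleotide incorporation into acid-insoluble RNA read by scintillation after filtration, no-enzyme background subtracted, activity relative to positive control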
Construct: contains a 21 amino acid deletion at the C-terminus relative to the full-length HCV polymerase; 6-histidine (N); made in house; host or cells: E. coli strain BL21(DE) pLysS (pET17b)
protocolDetails: biochemical
Set-up: species or system HCV Con1 strain
conditionDetails: IC50 HCV NS5B RNA Polymerase Assay (values with asterisk), values with asterisk: cIRES RNA template, 3 nM NS5B570n-Con1
measuredAttribute: IC50 (nM)

smilesText	measuredAttribute	uom	dataValue
COc1c(/C=C/c2ccc(NS(C)(=O)=O)cc2C(=O)N(C)CCN(C)C)cc(-c2cc(F)c[nH]c2=O)cc1C(C)(C)C	IC50	nM	4
COC(=O)c1ccccc1/C=C/c1cc(-c2ccc[nH]c2=O)cc(C(C)(C)C)c1OC	IC50	nM	2
COCc1cc(NS(C)(=O)=O)ccc1/C=C/c1cc(-c2ccc(C)[nH]c2=O)cc(C(C)(C)C)c1OC	IC50	nM	1
CCS(=O)(=O)Nc1ccc(/C=C/c2cc(-c3cc(F)c[nH]c3=O)cc(C(C)(C)C)c2OC)cc1	IC50	nM	5
CC(C)(C)c1cc(CCc2ccc(NS(C)(=O)=O)cn2)c(O)c(-c2ccc[nH]c2=O)c1	IC50	nM	2
COc1c(/C=C/c2ccc(NS(C)(=O)=O)cc2CN2CCOC2=O)cc(-c2cc(F)c[nH]c2=O)cc1C(C)(C)C	IC50	nM	5
COc1c(/C=C/c2ccccc2C(=O)O)cc(-c2ccc[nH]c2=O)cc1C(C)(C)C	IC50	nM	1
COCCOc1c(/C=C/c2ccc(NS(C)(=O)=O)cc2)cc(-c2ccc[nH]c2=O)cc1C(C)(C)C	IC50	nM	23
COc1c(/C=C/c2ccc(NS(=O)(=O)CC(F)(F)F)cn2)cc(-c2cc(F)c[nH]c2=O)cc1C(C)(C)C	IC50	nM	2
COc1c(/C=C/c2ccc(NS(C)(=O)=O)cn2)cc(-c2ccc[nH]c2=O)cc1C1(C(F)F)CC1	IC50	nM	1
CCOc1c(/C=C/c2ccc(NS(C)(=O)=O)cc2)cc(-c2ccc[nH]c2=O)cc1C(C)(C)C	IC50	nM	11
COc1c(/C=C/c2ccccc2F)cc(-c2ccc[nH]c2=O)cc1C(C)(C)C	IC50	nM	13
COc1c(/C=C/c2ccc(NS(=O)(=O)CCCN3CCCC3)cc2)cc(-c2ccc[nH]c2=O)cc1C(C)(C)C	IC50	nM	4
COc1c(/C=C/c2ccc(NS(=O)(=O)CCCN3CCOCC3)cc2)cc(-c2cc(F)c[nH]c2=O)cc1C(C)(C)C	IC50	nM	4
CS(=O)(=O)Nc1ccc(/C=C/c2cc(-c3ccc[nH]c3=O)cc(C3(Cl)CC3)c2)cc1	IC50	nM	2
COc1c(/C=C/c2ccc(NS(C)(=O)=O)cc2)cc(-c2ccc(COCCO)[nH]c2=O)cc1C(C)(C)C	IC50	nM	6
CS(=O)(=O)Nc1ccc(/C=C/c2cc(-c3cc(F)c[nH]c3=O)cc(C3(Cl)CC3)c2)cc1	IC50	nM	3
COCc1cc(NS(C)(=O)=O)ccc1/C=C/c1cc(-c2ccc[nH]c2=O)cc(C(C)(C)C)c1OC	IC50	nM	2
COC(=O)c1cc(NS(C)(=O)=O)ccc1CCc1cc(-c2cc(F)c[nH]c2=O)cc(C(C)(C)C)c1OC	IC50	nM	1
COc1c(/C=C/c2ccccn2)cc(-c2ccc[nH]c2=O)cc1C(C)(C)C	IC50	nM	3
COCc1cc(NS(C)(=O)=O)ccc1/C=C/c1cc(-c2ccc(OC)[nH]c2=O)cc(C(C)(C)C)c1OC	IC50	nM	1
COc1c(/C=C/c2ccc(NS(C)(=O)=O)cc2)cc(-c2cc(Cl)c[nH]c2=O)cc1C1(Cl)CC1	IC50	nM	5
COC(=O)c1cc(NS(C)(=O)=O)ccc1/C=C/c1cc(-c2ccc(C)[nH]c2=O)cc(C(C)(C)C)c1OC	IC50	nM	1
